# assayed.system: Protein phosphatase EYA2 (Homo sapiens) (UniProt O00167)
# Sequence (O00167 whole entry, looked up): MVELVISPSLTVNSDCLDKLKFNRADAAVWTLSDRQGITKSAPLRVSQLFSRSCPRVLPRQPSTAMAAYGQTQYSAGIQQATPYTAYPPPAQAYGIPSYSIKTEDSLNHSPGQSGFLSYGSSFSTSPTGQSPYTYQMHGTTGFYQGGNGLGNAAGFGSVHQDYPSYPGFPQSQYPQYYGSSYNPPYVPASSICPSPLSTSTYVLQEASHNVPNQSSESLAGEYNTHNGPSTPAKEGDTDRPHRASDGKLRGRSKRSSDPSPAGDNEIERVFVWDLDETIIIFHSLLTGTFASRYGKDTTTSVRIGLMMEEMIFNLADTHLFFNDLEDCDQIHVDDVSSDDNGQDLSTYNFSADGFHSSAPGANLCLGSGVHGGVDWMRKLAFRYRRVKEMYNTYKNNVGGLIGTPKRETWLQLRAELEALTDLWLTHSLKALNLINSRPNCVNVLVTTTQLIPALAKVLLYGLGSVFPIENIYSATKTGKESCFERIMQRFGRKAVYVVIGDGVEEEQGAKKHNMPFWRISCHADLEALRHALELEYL
# experimental.details: qHTS for Inhibitors of the Phosphatase Activity of Eya2: Confirmatory Assay for Cherry-picked Compounds; note: nearly all actives have a fitted effect of over 65% in size
# test.settings: purified EYA2 phosphatase activity, qHTS confirmation; series mostly up to 46.1 µM
About 460 (35%) of roughly 1,300 compounds were called active. About 39% were inconclusive and are not listed. Calls come from the whole dose curve; as a rule, active = well fitted inhibition curve with a large enough effect; inconclusive = small, poorly fitted or top-dose-only effect; inactive = flat fitted curve, though single readings scatter. The list shows a part of the results.
Could you please pick one outcome from this set? active, inactive

Solved entries:
compound	category
C1=Cc2ccccc2/C1=C\c1cc2c3c(c1)CCCN3CCC2	active
COCCNC(=O)CCC(=O)NNc1nc2ccccc2c2nc(-c3ccccc3)nn12	inactive
CCOc1ccccc1C(=O)OCC(=O)Nc1nnc(-c2ccccc2)o1	active
CNC(=O)c1ccc(Nc2nnc(-c3ccc(C(N)=O)cc3)c3ccccc23)cc1	active
O=S(c1cc(Cl)cc(Cl)c1O)c1cc(Cl)cc(Cl)c1O	active

INPUT: Can you look up the reported call for COc1ccc(Nc2nnc(-c3ccc(C(N)=O)cc3)c3ccccc23)cc1 for me?
OUTPUT: active
